assay-notes: Half life in rat at 10 mg/kg, iv
Type: ADME, organism-based
Parameters: dose 10 mg/kg, route intravenous
condition-notes: in vivo
measured-quantity: half-life

>  <compound-smiles>
Cc1cn2c(-c3cn[nH]c3)cnc2c(Nc2cc([C@@H](C)N3C[C@@H](C)O[C@@H](C)C3)ns2)n1

>  <measured-quantity>
half-life

>  <result>
5 h

$$$$

----------
target-or-system: Interleukin-1 receptor-associated kinase 4 (Homo sapiens)
Sequence (Q9NWZ3 whole entry): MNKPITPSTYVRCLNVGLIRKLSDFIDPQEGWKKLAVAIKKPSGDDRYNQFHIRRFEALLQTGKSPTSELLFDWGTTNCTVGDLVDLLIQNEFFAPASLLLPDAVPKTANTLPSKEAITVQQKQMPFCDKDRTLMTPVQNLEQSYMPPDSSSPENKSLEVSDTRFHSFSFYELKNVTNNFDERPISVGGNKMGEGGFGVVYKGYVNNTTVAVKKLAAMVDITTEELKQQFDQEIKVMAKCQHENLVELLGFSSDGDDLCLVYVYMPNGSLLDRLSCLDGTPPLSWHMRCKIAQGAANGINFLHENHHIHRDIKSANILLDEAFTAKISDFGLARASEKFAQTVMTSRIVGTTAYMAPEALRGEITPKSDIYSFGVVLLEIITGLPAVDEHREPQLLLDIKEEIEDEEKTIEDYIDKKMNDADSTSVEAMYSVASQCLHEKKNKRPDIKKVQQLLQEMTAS
assay-notes: Inhibition of IRK4
pIC50: −log10 of the molar value.
measured-quantity: pIC50

>  <compound-smiles>
Cc1cn2c(-c3cn[nH]c3)cnc2c(Nc2cc([C@@H](C)N3C[C@@H](C)O[C@@H](C)C3)ns2)n1

>  <number>
5.74

$$$$

----------
assay-notes: Clearance in mouse at 3 mg/kg, iv
Type: ADME, organism-based
Set-up: dose 3 mg/kg, route intravenous
condition-notes: in vivo
measured-quantity: clearance (mL/min/kg)

>  <compound-smiles>
Cc1cn2c(-c3cn[nH]c3)cnc2c(Nc2cc([C@@H](C)N3C[C@@H](C)O[C@@H](C)C3)ns2)n1

>  <value-unit>
mL/min/kg

>  <number>
20

$$$$

----------
assay-notes: Solubility in 20 mM acetate buffer at pH 4.0
Format: physicochemical
measured-quantity: solubility (µg/mL)

>  <compound-smiles>
Cc1cn2c(-c3cn[nH]c3)cnc2c(Nc2cc([C@@H](C)N3C[C@@H](C)O[C@@H](C)C3)ns2)n1

>  <measured-quantity>
solubility

>  <value-unit>
µg/mL

>  <number>
4660

$$$$

----------
assay-notes: AUC (0-infinity) in mouse at 3 mg/kg, iv
Format: ADME, organism-based
Design: time infinity, dose 3 mg/kg, route intravenous
condition-notes: plasma

>  <compound-smiles>
Cc1cn2c(-c3cn[nH]c3)cnc2c(Nc2cc([C@@H](C)N3C[C@@H](C)O[C@@H](C)C3)ns2)n1

>  <AUC(0-inf), µM·h>
5.6

$$$$

----------
assay-notes: AUC (0-infinity) in rat at 10 mg/kg, iv
Assay type: ADME, organism-based
Set-up: time infinity, dose 10 mg/kg, route intravenous
condition-notes: plasma

>  <compound-smiles>
Cc1cn2c(-c3cn[nH]c3)cnc2c(Nc2cc([C@@H](C)N3C[C@@H](C)O[C@@H](C)C3)ns2)n1

>  <AUC(0-inf) / µM·h>
38.8

$$$$

----------
assay-notes: Half life in mouse at 3 mg/kg, iv
Assay type: ADME, organism-based
Design: dose 3 mg/kg, route intravenous
condition-notes: in vivo

>  <compound-smiles>
Cc1cn2c(-c3cn[nH]c3)cnc2c(Nc2cc([C@@H](C)N3C[C@@H](C)O[C@@H](C)C3)ns2)n1

>  <half-life, h>
3.9

$$$$

----------
assay-notes: Volume of distribution at steady state in rat at 10 mg/kg, iv
Type: ADME, organism-based
Parameters: dose 10 mg/kg, route intravenous
condition-notes: in vivo, read-out: Vdss

>  <compound-smiles>
Cc1cn2c(-c3cn[nH]c3)cnc2c(Nc2cc([C@@H](C)N3C[C@@H](C)O[C@@H](C)C3)ns2)n1

>  <Vd / L/kg>
1.6

$$$$

----------
target-or-system: Tyrosine-protein kinase JAK2 (Homo sapiens)
Sequence (O60674 whole entry): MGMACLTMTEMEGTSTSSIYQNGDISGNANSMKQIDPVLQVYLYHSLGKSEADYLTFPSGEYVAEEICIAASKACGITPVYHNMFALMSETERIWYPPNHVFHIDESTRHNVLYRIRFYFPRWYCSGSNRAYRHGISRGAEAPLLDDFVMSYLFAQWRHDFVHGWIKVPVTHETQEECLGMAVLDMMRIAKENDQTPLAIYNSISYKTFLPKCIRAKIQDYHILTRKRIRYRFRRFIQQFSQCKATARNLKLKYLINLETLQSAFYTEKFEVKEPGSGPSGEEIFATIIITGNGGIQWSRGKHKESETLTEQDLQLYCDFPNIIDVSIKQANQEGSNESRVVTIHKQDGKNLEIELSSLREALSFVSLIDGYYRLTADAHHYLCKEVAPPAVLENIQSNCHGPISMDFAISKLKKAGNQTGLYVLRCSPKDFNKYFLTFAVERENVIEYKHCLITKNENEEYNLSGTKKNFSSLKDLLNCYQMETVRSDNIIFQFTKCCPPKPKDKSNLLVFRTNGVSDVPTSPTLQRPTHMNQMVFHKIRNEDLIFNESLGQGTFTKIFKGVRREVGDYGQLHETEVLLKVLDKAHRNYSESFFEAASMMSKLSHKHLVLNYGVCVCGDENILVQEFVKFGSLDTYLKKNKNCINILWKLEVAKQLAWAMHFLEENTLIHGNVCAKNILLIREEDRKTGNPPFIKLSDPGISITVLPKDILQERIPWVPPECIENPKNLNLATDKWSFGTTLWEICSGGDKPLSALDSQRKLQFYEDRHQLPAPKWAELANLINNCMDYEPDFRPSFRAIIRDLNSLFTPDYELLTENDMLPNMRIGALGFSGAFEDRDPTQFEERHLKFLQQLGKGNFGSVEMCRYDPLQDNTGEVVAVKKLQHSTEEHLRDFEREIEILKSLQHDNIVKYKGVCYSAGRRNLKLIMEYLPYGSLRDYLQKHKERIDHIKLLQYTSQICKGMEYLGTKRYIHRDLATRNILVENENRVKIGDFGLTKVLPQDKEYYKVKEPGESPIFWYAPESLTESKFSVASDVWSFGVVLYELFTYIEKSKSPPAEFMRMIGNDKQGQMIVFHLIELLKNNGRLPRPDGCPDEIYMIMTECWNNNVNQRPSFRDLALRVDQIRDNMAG
pIC50: −log10 of the molar value.
measured-quantity: pIC50

>  <compound-smiles>
Cc1cn2c(-c3cn[nH]c3)cnc2c(Nc2cc([C@@H](C)N3C[C@@H](C)O[C@@H](C)C3)ns2)n1

>  <measured-quantity>
pIC50

>  <result>
< 8.00

$$$$

----------
System: A2780
assay-notes: Antitumor activity against human A2780 cells assessed as inhibition of cell survival
Format: functional, cell-based
measured-quantity: EC50 (nM)

>  <compound-smiles>
Cc1cn2c(-c3cn[nH]c3)cnc2c(Nc2cc([C@@H](C)N3C[C@@H](C)O[C@@H](C)C3)ns2)n1

>  <number>
20

$$$$

----------
assay-notes: AUC (0-6 hrs) in rat at 10 mg/kg, po
Format: ADME, organism-based
Parameters: time < 6 hr, dose 10 mg/kg, route oral
condition-notes: plasma

>  <molecule>
Cc1cn2c(-c3cn[nH]c3)cnc2c(Nc2cc(C3(N4C[C@@H](C)O[C@@H](C)C4)CC3)ns2)n1

>  <value-unit>
nM·h

>  <AUC(0-t) at 6 h>
300

$$$$
>  <molecule>
Cc1cn2c(-c3cn[nH]c3)cnc2c(Nc2cc(C(c3ccccn3)N3CCOCC3)ns2)n1 (racemic)

>  <value-unit>
nM·h

>  <AUC(0-t) at 6 h>
400

$$$$
>  <molecule>
Cc1cn2c(-c3cn[nH]c3)cnc2c(Nc2cc(CN3CCCCC3(C)C)ns2)n1

>  <value-unit>
nM·h

>  <AUC(0-t) at 6 h>
500

$$$$
>  <molecule>
CCC(c1cc(Nc2nc(C)cn3c(-c4cn[nH]c4)cnc23)sn1)N1CCOCC1 (racemic)

>  <value-unit>
nM·h

>  <AUC(0-t) at 6 h>
500

$$$$
>  <molecule>
Cc1cn2c(-c3cn[nH]c3)cnc2c(Nc2cc(CN3C[C@H]4CC[C@@H](C3)O4)ns2)n1

>  <value-unit>
nM·h

>  <AUC(0-t) at 6 h>
400

$$$$
>  <molecule>
Cc1cn2c(-c3cn[nH]c3)cnc2c(Nc2cc(CN3C[C@@H](C)O[C@@H](C)C3)ns2)n1

>  <value-unit>
nM·h

>  <AUC(0-t) at 6 h>
7300

$$$$
>  <molecule>
Cc1cn2c(-c3cn[nH]c3)cnc2c(Nc2cc([C@@H](C)N3C[C@@H](C)O[C@@H](C)C3)ns2)n1

>  <value-unit>
nM·h

>  <AUC(0-t) at 6 h>
4600

$$$$
>  <molecule>
Cc1cn2c(-c3cn[nH]c3)cnc2c(Nc2cc(C(C)N3CCOCC3)ns2)n1 (racemic)

>  <value-unit>
nM·h

>  <AUC(0-t) at 6 h>
1100

$$$$
>  <molecule>
COCC(c1cc(Nc2nc(C)cn3c(-c4cn[nH]c4)cnc23)sn1)N1CCOCC1 (racemic)

>  <value-unit>
nM·h

>  <AUC(0-t) at 6 h>
2300

$$$$
>  <molecule>
Cc1cn2c(-c3cn[nH]c3)cnc2c(Nc2cc(C(C)N3CCOC(C)(C)C3)ns2)n1 (racemic)

>  <value-unit>
nM·h

>  <AUC(0-t) at 6 h>
1300

$$$$
>  <molecule>
Cc1cn2c(-c3cn[nH]c3)cnc2c(Nc2cc(CN3CCOCC34CCC4)ns2)n1

>  <value-unit>
nM·h

>  <AUC(0-t) at 6 h>
400

$$$$
>  <molecule>
Cc1cn2c(-c3cn[nH]c3)cnc2c(Nc2cc(CN3C[C@H](C)OC[C@@H]3C)ns2)n1

>  <value-unit>
nM·h

>  <AUC(0-t) at 6 h>
3900

$$$$
>  <molecule>
CCOC(=O)N1CCN(Cc2cc(Nc3nc(C)cn4c(-c5cn[nH]c5)cnc34)sn2)CC1

>  <value-unit>
nM·h

>  <AUC(0-t) at 6 h>
380

$$$$
>  <molecule>
Cc1cn2c(-c3cn[nH]c3)cnc2c(Nc2cc(C(C)N3C[C@@H](C)O[C@@H](C)C3)ns2)n1 (mixture of isomers)

>  <value-unit>
nM·h

>  <AUC(0-t) at 6 h>
8000

$$$$
>  <molecule>
Cc1cn2c(-c3cn[nH]c3)cnc2c(Nc2cc([C@H](C)N3C[C@@H](C)O[C@@H](C)C3)ns2)n1

>  <value-unit>
nM·h

>  <AUC(0-t) at 6 h>
1100

$$$$
>  <molecule>
Cc1cn2c(-c3cn[nH]c3)cnc2c(Nc2cc(CN3CCOCC3(C)C)ns2)n1

>  <value-unit>
nM·h

>  <AUC(0-t) at 6 h>
3300

$$$$
